B1: Osa-1-4 twister ribozyme (parent)
chain: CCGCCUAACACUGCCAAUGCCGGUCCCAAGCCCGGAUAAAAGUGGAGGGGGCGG

variants of: B1; assay: self-cleavage, relative activity (ratio to wild type); higher = more cleavage; co-transcriptional
Everything with self-cleavage lower than 0.1 is condition not met; everything else, including exactly 0.1, is condition met.

| input.sequence | class.assignment |
| --- | --- |
| CCGCCUACCACUGCCAAUGCCGGUCCCAAGCCAGGAUAAAAGUGGAGGGGGCGG [A8C C33A] | condition not met |
| CCGCCUAACUCUGCCAAUACCGGUCCCAAGCCCGGAUAAAAGUGGAGGGGGCGG [A10U G19A] | condition not met |
| CCGCCUAACACUGCCAAUGCCGGUACCAACCCCGGAUAAAAGUGGAGGGGGCGG [C25A G30C] | condition not met |
| CCGCCUAACACUGCCAAUGCCGGUCCCCAGCCCGGAUAAAAGUGGAGGCGGCGG [A28C G49C] | condition not met |
| CCGCCUAACACUGCGAAUGCCGGUCCCAAGCCCGGAUAAAAGUGGAGGUGGCGG [C15G G49U] | condition not met |
| CCGCCUAACACUGCCAAAGCCGGUCCCAAGCCGGGAUAAAAGUGGAGGGGGCGG [C33G U18A] | condition not met |
| CCGCCUAACACUGCCAAUGCCGGACCCAAGCCCCGAUAAAAGUGGAGGGGGCGG [G34C U24A] | condition not met |
| CCGCCUAACACUGCCAAUGCCGGUACCAAGCCGGGAUAAAAGUGGAGGGGGCGG [C25A C33G] | condition not met |
| CCGCCUAACACUGCCAACGCCGGUCCCAAGCCCGGAUAAAAGUGGAGGGGGCUG [G53U U18C] | condition met |
| CCGCCUAACACUGCCAAUGGCGGUCCCAAGCCCGGCUAAAAGUGGAGGGGGCGG [A36C C20G] | condition not met |
| CCGCCUAACACUGCUAAUGCCGGUACCAAGCCCGGAUAAAAGUGGAGGGGGCGG [C15U C25A] | condition not met |
| CCGCCUAACACUGCCAAUGCGGGUCUCAAGCCCGGAUAAAAGUGGAGGGGGCGG [C21G C26U] | condition not met |
| CCGCCUAACCCUGCCAAUGCCGGUCCCAAGCCCGGAUAAAAGUGGAGGGGGCGC [A10C G54C] | condition met |
| CCGCCUAACACUGCCAAUGCCGGUCCCAAGUCCGUAUAAAAGUGGAGGGGGCGG [C31U G35U] | condition met |
| CCGCCUAACACUGCCAAUGCCGGUCCCAAGCCCGGAUAAGAGUGGAGGGAGCGG [A40G G50A] | condition met |
| CCGCCUAACACUGCCAAUGCCGGUCCCAAGCCCGGAUUAAAGGGGAGGGGGCGG [A38U U43G] | condition met |
| CCGCCUAACACUGCCGAUGCCGGUCACAAGCCCGGAUAAAAGUGGAGGGGGCGG [A16G C26A] | condition not met |
| CCGCCUAACACUGCCAAUGCCGGUCCCAAGCCCGUAUAAAAGAGGAGGGGGCGG [G35U U43A] | condition met |
| CCGCCUAACACUACCAAUGCCGGUCCCAAGCCCGGAUAAAAGUGGAGGGGGUGG [C52U G13A] | condition met |
| CCGCCUAACACUGCCAAUCCCGGUCCCAAGCCCGGAUAAAAGUGGUGGGGGCGG [A46U G19C] | condition not met |
| CCGCCUAACACUGCCAAUGCCGGUCCCAAGGCCGGAUACAAGUGGAGGGGGCGG [A39C C31G] | condition not met |
| CCGCCUAACACGGCCAAUGCCGGUCCCAAGCCCGGACAAAAGUGGAGGGGGCGG [U12G U37C] | condition met |
| CCGCCUAACACUGCCAUUGCCGGUCCCAAGCCCGGAUAAAAGUGGAGGGGGCUG [A17U G53U] | condition met |
| CCGCCUAACACUGCCAAUGCCGGUCCCACGCCCGGAUAAAAGUGGAGGGGGCGC [A29C G54C] | condition not met |
| CCGCCUAACACUGCCAAUGCCGGUCCCAAGCCCGGCUAAAAGUGGAGAGGGCGG [A36C G48A] | condition not met |
| CCGCCUAACACUGCCAAUGCCGGUCCCAAGCCUGGAUGAAAGUGGAGGGGGCGG [A38G C33U] | condition met |
| CCGCCUAACACUGGCAAUGCCGGUCCCAAGCCGGGAUAAAAGUGGAGGGGGCGG [C14G C33G] | condition not met |
| CCGCCUAACACUGCCAGUGCCGGUCCCAAGCCCGGAUAAAAGUGGAGGGGGUGG [A17G C52U] | condition met |
| CCGCCUAACACUGCCAAUGCCGGUUCCAAGCCCGGAUAAAAGUGGAGGGGGCAG [C25U G53A] | condition met |
| CCGCCUAUCAAUGCCAAUGCCGGUCCCAAGCCCGGAUAAAAGUGGAGGGGGCGG [A8U C11A] | condition not met |
| CCGCCUAACACUGCCAAUGCAGGUCCCAAGCCCCGAUAAAAGUGGAGGGGGCGG [C21A G34C] | condition met |
| CCGCCUAACACUGGCACUGCCGGUCCCAAGCCCGGAUAAAAGUGGAGGGGGCGG [A17C C14G] | condition met |
| CCGCCUAACACUGCCAAAGCCGGUCCCAAGCCCGUAUAAAAGUGGAGGGGGCGG [G35U U18A] | condition met |
| CCGCCUAAAACUGCCAAUGCCGGUCCCAAGCCCGGAUAAAAGUGGAGUGGGCGG [C9A G48U] | condition not met |
| CCGCCUAACACUGCCAAAGACGGUCCCAAGCCCGGAUAAAAGUGGAGGGGGCGG [C20A U18A] | condition met |
| CCGCCUAACACUGCCAACACCGGUCCCAAGCCCGGAUAAAAGUGGAGGGGGCGG [G19A U18C] | condition met |
| CCGCCUAAGACUGCCAAUGCCGGUCCCAAGCCCGGAUAAACGUGGAGGGGGCGG [A41C C9G] | condition met |
| CCGCCUAACACUGCCAAUGCCGCUCCCAAGCACGGAUAAAAGUGGAGGGGGCGG [C32A G23C] | condition not met |
| CCGCCUAACACUGCCAAUGCCGGUCCCAAGCCCGGAUUAAAGUCGAGGGGGCGG [A38U G44C] | condition met |
| CCGCCUAACACUGCCAAUGCCGGUCCCAAGCCCGGAUAAAAGUGGAGGGAGCCG [G50A G53C] | condition met |
| CCGCCUAACACUGCCAAGGCCGGUCCCAAGCGCGGAUAAAAGUGGAGGGGGCGG [C32G U18G] | condition met |
| CCGCCUAACACUGCCAAUGCCGGUCCCAAGCCCGGAUAAACGUGCAGGGGGCGG [A41C G45C] | condition not met |
| CCGCCUAACACUGCCAAUGCCGUUCCCAAGCCCGGAUAAAAGUGGAGGGGGCCG [G23U G53C] | condition not met |
| CCGCCUAACACUGCCAAUGCCGUUCGCAAGCCCGGAUAAAAGUGGAGGGGGCGG [C26G G23U] | condition not met |
| CCGCCUCACACUGCCAAUGCCGGUCCCAAGCCCGGAUAGAAGUGGAGGGGGCGG [A39G A7C] | condition not met |
| CCGCCUAACACUGGCAAUGCCGGUCCCAAGCCCGGAUAAAAGUGGAGGGGGUGG [C14G C52U] | condition met |
| CCGCCUAAGACUGCCAAUGCCGGUCCCAAGCCCGGAUAACAGUGGAGGGGGCGG [A40C C9G] | condition not met |
| CCGCCUAAUACUGCCAAUGCCGGUCCCAAGCCCGGAUAAAAAUGGAGGGGGCGG [C9U G42A] | condition not met |
| CCGCCUAACACUGCCAAUGCCGGUCCCAAGCCUGGAUAAAAGCGGAGGGGGCGG [C33U U43C] | condition not met |
| CCGCCUAACACUGCCAAUGCCGGUCCCAAGCCCGUAUAAAAGUGGAGGGGGCGA [G35U G54A] | condition met |
| CCGCCUAACACUGCCAACGCCGGUCCCAAGCCCGGAUAAAAGUGGUGGGGGCGG [A46U U18C] | condition not met |
| CCGCCUAACACUGCCGAUGCCGGUCUCAAGCCCGGAUAAAAGUGGAGGGGGCGG [A16G C26U] | condition met |
| CCGCCUAACAUUGCCAAUGCCGGUCCCAAGCCCGGAUAAGAGUGGAGGGGGCGG [A40G C11U] | condition met |
| CCGCCUCACACUGCCAAUGCCGGUCCCAAGCCCGGAUAAAAGUGGAGGGGGCAG [A7C G53A] | condition not met |
| CCGCCUAACACUGCCAAUGCCGGUCCCAAGGCCGGAUAAAAGUGGAUGGGGCGG [C31G G47U] | condition not met |
| CCGCCUUACACUGCCAAUGCCGGUCCCAAGCCCGCAUAAAAGUGGAGGGGGCGG [A7U G35C] | condition not met |
| CCGCCUAACACUGCCAGUGCCGGACCCAAGCCCGGAUAAAAGUGGAGGGGGCGG [A17G U24A] | condition met |
| CCGCCUAACACUGCUAAUGCCGGUCCCAAGCCCGGAUAAACGUGGAGGGGGCGG [A41C C15U] | condition met |
| CCGCCUAACUCUGCCAAUGCCGGUCCCAAGCCCGGAUAAAAGCGGAGGGGGCGG [A10U U43C] | condition not met |
| CCGCCUAACACUGCCAAUGCCGGUCCCAACCCCGGAUAAAAGUGGAGCGGGCGG [G30C G48C] | condition not met |
| CCGCCUACCACUGUCAAUGCCGGUCCCAAGCCCGGAUAAAAGUGGAGGGGGCGG [A8C C14U] | condition not met |
| CCGCCUAACACUGCCAAUGCCGGUCCCAAGUCCGGAUAAAAGUGGAGGGGGCGU [C31U G54U] | condition met |
| CCGCCUAACACUGCCAAUGCCGGUCCCAAGUCCGGAUAAAAGUGGAGGGGGAGG [C31U C52A] | condition met |
| CCGCCUAACACUACCAAUGCCGGUCCCAAGCCCGGACAAAAGUGGAGGGGGCGG [G13A U37C] | condition met |
| CCGCCUAACACUGCCAAUGCCGGUCCCAAGCCCGGAUAAUAGUGGACGGGGCGG [A40U G47C] | condition not met |
| CCGCCUAACACUUCCAAUGCCGGUCCCAAGCCCGGAUAAAAGCGGAGGGGGCGG [G13U U43C] | condition not met |
| CCGCCUAACACUGCCAAUGCCGGUCCCGAGCGCGGAUAAAAGUGGAGGGGGCGG [A28G C32G] | condition not met |
| CCGCCUAACACUGCCAAUGCCGGUCCCAAGCCCGGAUAAAAGUAGCGGGGGCGG [A46C G44A] | condition not met |
| CCGCCUAACACUGCCAAUGCCGGUUCCAAGCCCGGAUAAAAAUGGAGGGGGCGG [C25U G42A] | condition met |
| CCGCCUAACACUGCCAAUGCCGGUCCCAAGCUCGGAUAAAAGUGGAGGGGGCCG [C32U G53C] | condition not met |
| CCGCCUAACACUGCCAAUGGCGGUCCAAAGCCCGGAUAAAAGUGGAGGGGGCGG [C20G C27A] | condition not met |
| CCGCCUAAUACUACCAAUGCCGGUCCCAAGCCCGGAUAAAAGUGGAGGGGGCGG [C9U G13A] | condition not met |
| CCGCCUAAUACUGCCAAUGCCGCUCCCAAGCCCGGAUAAAAGUGGAGGGGGCGG [C9U G23C] | condition not met |
| CCGCCUAACUCUGCCAAUGCCGGUCCCCAGCCCGGAUAAAAGUGGAGGGGGCGG [A10U A28C] | condition not met |
| CCGCCUAACCCUGCCAAUGCCGGUCCCAAGCCCGGAUAAAAGUGGAUGGGGCGG [A10C G47U] | condition not met |
| CCGCCUAACACUGCCAAUGCCGGUCCCAAGCCCGGAUAAAAGUGGAGGCGGAGG [C52A G49C] | condition not met |
| CCGCCUAACAUUGCCAAUGCCGGUCCCAACCCCGGAUAAAAGUGGAGGGGGCGG [C11U G30C] | condition not met |
| CCGCCUAACACUGCCAAUGCCGGUCCCAAGCCCGGAUUAAAAUGGAGGGGGCGG [A38U G42A] | condition met |
| CCGCCUAACACUGCCAAUGCCGGUCCCAAGCCCGGAUAAAAGUCAAGGGGGCGG [G44C G45A] | condition met |
| CCGCCUAACACUGCCAAUGCCGGUCCCAAGCCCGGAUAAAAGUGGAGGCGGCAG [G49C G53A] | condition not met |
